test system: calvaria; assay: Inhibition of bone resorption (45Ca release from calvaria stimulated with hPTH (1-34), method of Raisz); type: cell-based, new born ICR mouse; conditions: Mus musculus, 72 h; 45Ca release, 50 nM hPTH (1-34), 3 days incubation; test concentrations 0.04, 0.2 and 1 μM; mean of 4 pairs; read-out: IC50 (inhibition of bone resorption)
readout: IC50 (nM)

Please review the entries below; each comes with its answer.
[
  {
    "molecule": "Cc1nnc2n1-c1ccccc1C(c1ccccc1)=NN2Cc1ccncc1 [Example 129]",
    "IC50 [nM]": 780
  },
  {
    "molecule": "CCc1cc2c(s1)-n1c(C)nnc1N(Cc1cccnc1)N=C2c1ccc(Cl)cc1 [Example 141]",
    "IC50 [nM]": 680
  },
  {
    "molecule": "Cc1nnc2n1-c1ccccc1C(c1ccc(Cl)cc1)=NN2Cc1cc(F)cc(F)c1 [Example 62]",
    "IC50 [nM]": 710
  },
  {
    "molecule": "Cc1nnc2n1-c1ccccc1C(c1ccc(Cl)cc1)=NN2Cc1cc(Cl)nc(Cl)c1 [Example 123]",
    "IC50 [nM]": 650
  },
  {
    "molecule": "Cc1nnc2n1-c1ccccc1C(c1ccc(Cl)cc1)=NN2Cc1ccc(O)cc1 [Example 184]",
    "IC50 [nM]": 560
  },
  {
    "molecule": "Cc1sc2c(c1C)C(c1ccccc1)=NN(Cc1cccnc1)c1nnc(C)n1-2 [Example 145]",
    "IC50 [nM]": 120
  },
  {
    "molecule": "COc1cc(CN2N=C(c3ccc(Cl)cc3)c3ccccc3-n3c(C)nnc32)cc(OC)c1OC [Example 79]",
    "IC50 [nM]": 570
  },
  {
    "molecule": "Cc1ccc(C2=NN(Cc3cccc(C#N)c3)c3nnc(C)n3-c3ccccc32)cc1 [Example 136]",
    "IC50 [nM]": 590
  }
]

a. Cc1nc(CN2N=C(c3ccc(Cl)cc3)c3ccccc3-n3c(C)nnc32)cs1 [Example 100]
b. Cc1nnc2n1-c1ccccc1C(c1ccc(Cl)cc1)=NN2Cc1cccc(C#N)c1 [Example 56]
Exercise: Kindly compare a with b and tell me which has the lower IC50 figure. Answer format: the label of the selected item.
Key: b

* * *

system: calvaria; assay: Inhibition of bone resorption (45Ca release from calvaria stimulated with hPTH (1-34), method of Raisz); type: cell-based, new born ICR mouse; conditions: Mus musculus, 72 h; 45Ca release, 50 nM hPTH (1-34), 3 days incubation; test concentrations 0.04, 0.2 and 1 μM; mean of 4 pairs; read-out: IC50 (inhibition of bone resorption)
Where a name gives a salt, the structure may show the parent alone.
readout: IC50 (µM)

// solved cases for IC50 follow
[
  {
    "compound": "Cc1nnc2n1-c1ccccc1C(c1ccc(Cl)cc1)=NN2Cc1ccccc1F",
    "unit-info": "µM",
    "IC50": 0.72
  },
  {
    "compound": "COc1ccc(CN2N=C(c3ccc(C)cc3)c3ccccc3-n3c(C)nnc32)cc1",
    "unit-info": "µM",
    "IC50": 0.42
  },
  {
    "compound": "Cc1nnc2n1-c1ccccc1C(c1ccc(Cl)cc1)=NN2Cc1ccc(F)c(F)c1",
    "unit-info": "µM",
    "IC50": 0.74
  },
  {
    "compound": "COc1ccc(CN2N=C(c3ccc(Cl)cc3)c3ccccc3-n3c(C)nnc32)cc1[N+](=O)[O-]",
    "unit-info": "µM",
    "IC50": 0.67
  },
  {
    "compound": "Cc1nnc2n1-c1ccccc1C(c1ccc(Cl)cc1)=NN2Cc1ccc(N(C)C)cc1 [Example 191, hydrochloride]",
    "unit-info": "µM",
    "IC50": 0.74
  }
]

a. Cc1nnc2n1-c1ccccc1C(c1ccc(Cl)cc1)=NN2Cc1ccc2c(c1)OCO2
b. C=C(Cl)CN1N=C(c2ccc(Cl)cc2)c2ccccc2-n2c(C)nnc21
c. Cc1nnc2n1-c1ccccc1C(c1ccc(Cl)cc1)=NN2Cc1ccc(S(C)(=O)=O)cc1
d. Cc1nnc2n1-c1ccccc1C(c1ccc(Cl)cc1)=NN2Cc1ccncc1
Exercise: Reorder: IC50, max to min. Answer format: the labels, in the requested order.
Key: a, b, d, c

* * *

tested on: calvaria; assay: Inhibition of bone resorption (45Ca release from calvaria stimulated with hPTH (1-34), method of Raisz); format: cell-based, new born ICR mouse; settings: Mus musculus, 72 h; 45Ca release, 50 nM hPTH (1-34), 3 days incubation; test concentrations 0.04, 0.2 and 1 μM; mean of 4 pairs; read-out: IC50 (inhibition of bone resorption)
pIC50: −log10 of the molar value.
readout: pIC50

A selection of reference data follows.
[
  {
    "compound": "Cc1nnc2n1-c1ccccc1C(c1ccc(Cl)cc1)=NN2Cc1cc(F)ccc1F [Example 61]",
    "readout": "pIC50",
    "test-value": 6.09
  },
  {
    "compound": "Cc1nnc2n1-c1ccccc1C(c1ccc(Cl)cc1)=NN2Cc1ccc(C#N)cc1 [Example 74]",
    "readout": "pIC50",
    "test-value": 6.37
  },
  {
    "compound": "C=C(C)CN1N=C(c2ccc(Cl)cc2)c2ccccc2-n2c(C)nnc21 [Example 111]",
    "readout": "pIC50",
    "test-value": 6.29
  }
]

I. Cc1cc2c(s1)-n1c(C)nnc1N(Cc1cccnc1)N=C2c1ccccc1 [Example 143]
II. Cc1nnc2n1-c1ccccc1C(c1ccc(Cl)cc1)=NN2Cc1cccnc1 [Example 54]
Exercise: So which one has the bigger pIC50 here, I or II ? Respond with the label that goes with your answer.
Key: I
(I: 6.47, II: 6.27)
